Please enter Yes where logP is greater than or equal to 7, and No where it is lower.

Check this molecule for logP at or above 7: `CCCCCCCCCCCCCCCc1ccc(O)c(O)c1`
Yes

Check this molecule for logP at or above 7: `CCCCCCCc1ccc(O)cc1`
No

Check this molecule for logP at or above 7: `CCCCCCCc1ccc(O)cc1O`
No

Check this molecule for logP at or above 7: `CCCCCCCCCCCCc1ccc(O)cc1`
Yes

Check this molecule for logP at or above 7: `CCCCCCCCCCCc1cccc(O)c1O`
No

Check this molecule for logP at or above 7: `CCCCCCCCCc1ccc(O)cc1O`
No

Check this molecule for logP at or above 7: `CCCCCCCCCc1ccc(O)c(O)c1`
No

Check this molecule for logP at or above 7: `CCCCCCCCCCCCCCCc1ccc(O)cc1O`
Yes

Check this molecule for logP at or above 7: `CCCCCCCCCCCCCc1cccc(O)c1O`
Yes

Check this molecule for logP at or above 7: `CCCCCc1cccc(O)c1`
No

Check this molecule for logP at or above 7: `CCCCCCCCCCCCCc1cccc(O)c1`
Yes

Check this molecule for logP at or above 7: `CCCCCCCc1ccccc1O`
No

Check this molecule for logP at or above 7: `CCCCCCCCCc1cccc(O)c1O`
No

###

measured.attribute: logP

INSERT INTO results (chemical_smiles, recorded_result) VALUES
  ('CCCCCCCCCc1cccc(O)c1', 5.61);

Reported logP of `CCCCCCCCCc1ccccc1O` : 5.76

Reported logP of `CCCCCc1ccc(O)c(O)c1` : 3.13

Reported logP of `CCCCCCCCCCCc1ccc(O)cc1O` : 5.43

###

# strict inequality: logP < 8 yields satisfied, everything else yields not satisfied

INSERT INTO measurements (chemical_smiles, label) VALUES
  ('CCCCCCCCCCCCCc1ccccc1O', 'not satisfied'),
  ('CCCCCCCCCCCCCCCc1cccc(O)c1O', 'not satisfied'),
  ('CCCCCCCCCCCCCc1ccc(O)cc1O', 'satisfied');

Hello, I'm reviewing records and need to know if logP of `CCCCCCCc1cccc(O)c1O` is below 8. Could you check?
satisfied

Hello, I'm reviewing records and need to know if logP of `CCCCCCCCCc1ccc(O)cc1` is below 8. Could you check?
satisfied

###

Recorded logP by entry

Please review the entries below; each comes with its answer.
INSERT INTO results (chemical_smiles, measured_attribute, recorded_result) VALUES
  ('CCCCCCCCCCCc1cccc(O)c1', 'logP', 6.98),
  ('CCCCCCCCCCCc1ccc(O)cc1', 'logP', 7.18);

Attention now turns to another entry.
Reported logP of `CCCCCCCCCCCc1ccccc1O` : 7.17

###

measured.attribute: logP

INSERT INTO results (chemical_smiles, measured_attribute, recorded_result) VALUES
  ('CCCCCCCCCCCCCc1ccc(O)c(O)c1', 'logP', 8.42),
  ('CCCCCCCCCCCCCCCc1cccc(O)c1', 'logP', 10.1);

Reported logP of `CCCCCCCCCCCc1ccc(O)c(O)c1` : 6.94

Reported logP of `CCCCCCCCCCCCCCCc1ccccc1O` : 10.1

All values here come from the SangsterLogP compilation.
